The measured values listed here are drawn from patent EP4772535A1.

Listed here: items and their measured EC50.
Biological target: T1, ROR1 naturally expressed on human tumor cell lines (A549, Jeko-1, SW620, PA-1) (human, UniProt Q01973 30-937)
T1 construct: whole, on cells; also called cells expressing ROR1
T1 sequence (Q01973 30-937): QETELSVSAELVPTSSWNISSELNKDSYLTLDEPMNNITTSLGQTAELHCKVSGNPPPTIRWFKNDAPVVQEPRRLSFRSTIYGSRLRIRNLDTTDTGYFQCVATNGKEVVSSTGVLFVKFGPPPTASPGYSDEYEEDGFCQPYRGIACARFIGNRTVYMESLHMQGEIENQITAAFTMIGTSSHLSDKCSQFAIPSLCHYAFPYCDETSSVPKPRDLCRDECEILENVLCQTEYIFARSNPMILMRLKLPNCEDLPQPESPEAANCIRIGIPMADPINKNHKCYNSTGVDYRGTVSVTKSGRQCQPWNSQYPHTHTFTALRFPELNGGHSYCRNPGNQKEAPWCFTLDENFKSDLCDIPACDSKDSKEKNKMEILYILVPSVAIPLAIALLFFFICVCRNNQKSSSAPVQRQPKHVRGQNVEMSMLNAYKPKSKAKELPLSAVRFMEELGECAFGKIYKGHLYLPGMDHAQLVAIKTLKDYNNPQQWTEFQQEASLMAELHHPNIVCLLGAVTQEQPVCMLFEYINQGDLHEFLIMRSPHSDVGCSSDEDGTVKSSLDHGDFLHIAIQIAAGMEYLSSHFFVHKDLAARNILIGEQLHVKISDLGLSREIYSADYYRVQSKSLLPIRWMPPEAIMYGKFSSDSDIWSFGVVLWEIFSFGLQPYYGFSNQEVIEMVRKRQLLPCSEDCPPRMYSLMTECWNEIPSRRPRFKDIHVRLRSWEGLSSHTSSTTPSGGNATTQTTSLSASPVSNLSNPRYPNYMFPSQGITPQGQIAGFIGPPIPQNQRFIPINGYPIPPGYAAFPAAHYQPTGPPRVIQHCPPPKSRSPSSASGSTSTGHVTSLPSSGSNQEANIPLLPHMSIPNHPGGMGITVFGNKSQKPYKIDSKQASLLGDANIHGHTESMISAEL
Experiment: FACS on SW620 cells naturally expressing ROR1
Enter your answer as a number in nM; do not include the unit.

Illustrative cases are given below, each with its answer.
hz135A2B10-1.1 (antibody, human IgG1, kappa, V domains shown, Humanized, human IgG1/kappa) VH: QVQLVESGGGLVQPGGSLRLSCAASGFAFSTYGMAWVRQAPGKGLEWVASIHKGGFSTYYPDNVKGRFTISRDNAKNSLYLQMNSLRAEDTAVYYCARHDWDGAMDYWGQGTLVTVSS VL: DIQMTQSPSSLSASVGDRVTITCKASQDINSYLNWYQQKPGKAPKTLIYRANRLVDGVPSRFSGSGSGQDYTLTISSLQPEDFATYYCLQFDEFPYTFGQGTKVEIKR :: 0.022
UC-961 (antibody, V domains shown) VH: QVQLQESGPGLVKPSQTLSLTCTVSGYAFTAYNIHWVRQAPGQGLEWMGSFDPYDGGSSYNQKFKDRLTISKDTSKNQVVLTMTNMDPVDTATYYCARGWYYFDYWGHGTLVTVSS VL: DIVMTQTPLSLPVTPGEPASISCRASKSISKYLAWYQQKPGQAPRLLIYSGSTLQSGIPPRFSGSGYGTDFTLTINNIESEDAAYYFCQQHDESPYTFGEGTKVEIK :: 0.025

Task item: Any idea what EC50 was measured for hz135A2B10-1.3 (antibody, human IgG1, kappa, V domains shown, Humanized, human IgG1/kappa) VH: QVQLVESGGGLVQPGGSLRLSCAASGFAFSTYGMAWVRQAPGKRLEWVASIHKGGFSTYYPDNVKGRFTISRDNDKNSLYLQMNSLRAEDTAVYYCIRHDWDGAMDYWGQGTLVTVSS VL: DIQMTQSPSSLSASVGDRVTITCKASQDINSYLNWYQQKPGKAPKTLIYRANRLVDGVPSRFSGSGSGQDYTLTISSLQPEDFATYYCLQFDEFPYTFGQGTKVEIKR ?
Reply: 0.047
